Every entry's value here was drawn from patent US20240182445A1.

# TESTED ON: human TREK-1 (Homo sapiens)
# Construct: expressed in transfected cells
# Sequence (O95069 whole entry): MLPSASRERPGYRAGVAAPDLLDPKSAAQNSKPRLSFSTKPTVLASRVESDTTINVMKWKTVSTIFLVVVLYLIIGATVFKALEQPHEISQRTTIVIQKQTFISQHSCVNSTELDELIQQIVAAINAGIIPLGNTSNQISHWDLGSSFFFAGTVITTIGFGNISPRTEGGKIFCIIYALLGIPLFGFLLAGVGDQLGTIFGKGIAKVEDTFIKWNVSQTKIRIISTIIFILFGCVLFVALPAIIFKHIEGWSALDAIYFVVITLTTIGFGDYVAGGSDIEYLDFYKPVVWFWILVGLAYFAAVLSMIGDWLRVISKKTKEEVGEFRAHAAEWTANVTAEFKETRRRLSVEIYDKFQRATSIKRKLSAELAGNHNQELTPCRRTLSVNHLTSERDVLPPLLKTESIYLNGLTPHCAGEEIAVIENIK
# ASSAY EXPLANATION: TREK-1 Thallium (Tl+) flux assay, Method 1
# Format: cell-based
# CONDITION: TREK-1 Thallium (Tl+) flux assay; no *^12 (Method 2) mark on these rows
# Description: The term “thallium flux assay” herein refers to a fluorescence-based assay used to monitor the activity of TREK channels. Thallium is a congener of potassium that readily fluxes through the pore of TREK channels. Thallium flux is measured using a commercially available, thallium-sensitive fluorescent dye called Thallos. The detail method is described below. […] ΔRatio=(fluorescence intensity at 25 seconds after thallium addition)/(average of fluorescent intensity before thallium addition)
pIC50: −log10 of the molar value.
# pIC50 listing for each entry below

{"COMPOUND": "Cc1cc(C#Cc2ccccc2)cnc1NC(=O)c1c(Cl)ccn1CC1CCOCC1", "TESTED ON": "human TREK-1 (Homo sapiens)", "pIC50": 5.94}
{"COMPOUND": "Cc1cc(C#Cc2ccccc2)cnc1NC(=O)c1c(Cl)cnn1C1CCN(C(=O)C(C)(C)C)CC1", "TESTED ON": "human TREK-1 (Homo sapiens)", "pIC50": 6.47}
{"COMPOUND": "O=C(Nc1ncc(C#Cc2ccccc2)cc1Cl)c1c(Cl)cnn1C[C@H]1COCCO1", "TESTED ON": "human TREK-1 (Homo sapiens)", "pIC50": 6.04}
{"COMPOUND": "Cc1cc(C#Cc2ccccc2)cnc1NC(=O)c1c(Cl)cnn1C1CCN(C(=O)OC(C)(C)C)C1 (centres unmarked)", "TESTED ON": "human TREK-1 (Homo sapiens)", "pIC50": 6.24}
{"COMPOUND": "Cc1cc(-c2cnn(-c3ccc(F)cc3)c2)cnc1NC(=O)c1c(Cl)cnn1C[C@H]1CCOC1", "TESTED ON": "human TREK-1 (Homo sapiens)", "pIC50": 6.05}
{"COMPOUND": "Cc1cc(C#Cc2ccccc2)cnc1NC(=O)c1c(Cl)cnn1C1CCC(C#N)C1 (centres unmarked)", "TESTED ON": "human TREK-1 (Homo sapiens)", "pIC50": 6.29}
{"COMPOUND": "O=C(Nc1ncc(C#Cc2ccc(F)cc2)cc1F)c1c(Cl)cnn1[C@@H]1CCN(C(=O)C2COCCO2)C[C@H]1F (some centres unmarked)", "TESTED ON": "human TREK-1 (Homo sapiens)", "pIC50": 6.44}
{"COMPOUND": "Cc1cc(C#Cc2ccccc2)cnc1NC(=O)c1c(Cl)cnn1[C@@H]1CCN(C(=O)OC(C)(C)C)C1", "TESTED ON": "human TREK-1 (Homo sapiens)", "pIC50": 6.07}
